# targetUnderTest: Casein kinase I isoform delta (Homo sapiens)
# cond: Compound concentration 20.0 uM
# Description: Thermal Shift Assay. Domain: start/stop: M1-K294
Residues, ends and D or L forms follow the SMILES beside them. *: point of attachment. CH2Cl = ClC*
We begin with a simple list: items and their reported ΔTm.
measurementName: ΔTm (°C)

> print(dat)
                                    compound                           targetundertest  measurementname  valueunit  observedvalue
 1  CC(=O)N[C@@H](CC(C)C)C(=O)N[C@@H](CCC(=O)O)C(=O)N[C@@H](Cc1cnc[nH]1)C(=O)N[C@@H](CC(=O)O)C(=O)CCl (Ac-LEHD-CH2Cl)  Casein kinase I isoform delta (Homo sapiens)              ΔTm         °C            0.2
 2  CC(C)(C)OC(=O)Nc1ccc(CNc2nccc(Nc3cc(C(=O)OC(C)(C)C)[nH]n3)n2)cc1  Casein kinase I isoform delta (Homo sapiens)              ΔTm         °C           0.13
 3  COc1ccccc1C(=O)Nc1cc2c(cc1N1CCNC[C@H]1C)n(C)c(=O)n2C  Casein kinase I isoform delta (Homo sapiens)              ΔTm         °C           0.91
 4  CC(=O)N1CCN([C@H]2CCC[C@@H](NC(=O)c3cc4c(F)ccc(C)c4[nH]3)C2)CC1  Casein kinase I isoform delta (Homo sapiens)              ΔTm         °C           0.26
 5  Nc1ccccc1NC(=O)c1ccc(CNC(=O)OCc2cccnc2)cc1  Casein kinase I isoform delta (Homo sapiens)              ΔTm         °C           0.33
 6  O=c1[nH]ccc2cc(F)c(NS(=O)(=O)c3ccc(N4CC[C@@H](O)C4)s3)cc12  Casein kinase I isoform delta (Homo sapiens)              ΔTm         °C           0.39
 7              Cc1nn2c(nc(O)c3cccnc32)c1C#N  Casein kinase I isoform delta (Homo sapiens)              ΔTm         °C          -0.11
 8  COc1cc(Cl)ccc1C1=CN(c2ccc(-c3ccccc3OC)cc2)C2=NCCCN12  Casein kinase I isoform delta (Homo sapiens)              ΔTm         °C          -0.21
 9  N#C[C@@H]1CCCN1C(=O)CNC(=O)c1ccnc2ccc(OCCCN3CCN(C(=O)CN4CCN(CC(=O)O)CCN(CC(=O)O)CCN(CC(=O)O)CC4)CC3)cc12  Casein kinase I isoform delta (Homo sapiens)              ΔTm         °C           -0.3
10  Cn1c(=O)c2c(nc(N3CCNCC3)n2Cc2nnc(-c3ccc(Cl)c(Cl)c3)o2)n(C)c1=O  Casein kinase I isoform delta (Homo sapiens)              ΔTm         °C           0.33
11  CC(=O)N[C@@H](Cc1ccc(O)cc1)C(=O)N[C@H](C(=O)N[C@@H](C)C(=O)N[C@H](C=O)CC(=O)O)C(C)C  Casein kinase I isoform delta (Homo sapiens)              ΔTm         °C           0.05
12  Cc1cc(-c2ccc3nc(C4CCOCC4)n(CCOC(F)(F)F)c3c2)cn(C)c1=O  Casein kinase I isoform delta (Homo sapiens)              ΔTm         °C           0.13
13   CCCCN(Cc1ccc(C(=O)NO)cc1)C(=O)Nc1ccccc1  Casein kinase I isoform delta (Homo sapiens)              ΔTm         °C           0.26
14  O=C(Nc1c[nH]nc1C(=O)NC1CCNCC1)c1cc(F)cc(F)c1  Casein kinase I isoform delta (Homo sapiens)              ΔTm         °C           1.02
15  CNc1nccc(CN([C@H]2CC[C@H](N)CC2)S(=O)(=O)c2ccc(S(=O)(=O)N(Cc3ccc(Cl)cc3)C3CCCC3)cc2)n1  Casein kinase I isoform delta (Homo sapiens)              ΔTm         °C          -0.71
16  CCn1c(=O)c(C)cn(Cc2nnc(-c3ccc(F)c(OC)c3F)s2)c1=O  Casein kinase I isoform delta (Homo sapiens)              ΔTm         °C           0.22
17  CC(C)(C)C1CCN(C(=O)n2ncc(C(O)(c3ccccc3)c3ccccc3)n2)CC1  Casein kinase I isoform delta (Homo sapiens)              ΔTm         °C           0.67
18  CC(C)NCC(O)COC(Cn1c2ccccc2c2ccccc21)Cn1c2ccccc2c2ccccc21 (stereo not drawn)  Casein kinase I isoform delta (Homo sapiens)              ΔTm         °C           -0.3

====

We begin with a simple list: items and their reported ΔTm.
# targetUnderTest: Transcription intermediary factor 1-alpha (Homo sapiens)
# cond: Compound concentration 20.0 uM
measurementName: ΔTm (°C)

> print(dat)
                                    compound  observedvalue
 1  O=C(Nc1c[nH]nc1C(=O)NC1CCNCC1)c1cc(F)cc(F)c1           -0.9
 2  Cc1ccc2[nH]c3c(c2c1)CCCC3C(N)=O (stereo not drawn)          -1.11
 3  CC(C)[C@H](NC(=O)OCc1ccccc1)C(=O)NC(CC(=O)O)C(=O)CF (stereo partly drawn)          -1.64
 4  O=C(NCc1ccc(F)cc1)C1CCN(S(=O)(=O)c2cc(Cl)cc(Cl)c2)CC1           0.75
 5  O=c1[nH]c(CS[C@H]2CC[C@H](O)CC2)nc2cc(OCC3CC3)cc(F)c12          -0.56
 6  Cc1cc(-c2ccccc2)cc(C(=O)NNS(=O)(=O)c2ccccc2)c1F          -1.85
 7         C=CCc1cccc(CNc2nc3ccccc3n2CCC)c1O           0.59
 8  CCCCCCCC(=O)N[C@H](CN1CCCC1)[C@H](O)c1ccc2c(c1)OCCO2          -0.39
 9  COCc1nc(C(F)(F)F)[nH]c1-c1cc(C(=O)N2CC(c3ccc(C#N)cc3)C2)c(C)cc1C          -1.79
10  CC(=O)N[C@@H](C)C(=O)N[C@@H](CCC(=O)O)C(=O)N[C@H](C(=O)N[C@@H](C=O)CC(=O)O)C(C)C          -0.66
11  CCC(CC)(NC(=O)C(C)C)C(=O)N[C@@H](CCCNC(=N)N)C(=O)NC1(C(=O)NC(c2ccc(F)cc2)c2ccc(F)cc2)CCCC1          -1.17
12  CCOC(=O)Oc1c(OC)cc(C(=O)O[C@H]2C[C@H]3CN4CCc5c([nH]c6cc(OC)ccc56)[C@@H]4C[C@H]3[C@@H](C(=O)OC)[C@@H]2OC)cc1OC           0.01
13  Cn1nc(C(C)(C)C)cc1C(=O)NC(Cc1cccc(Cl)c1)C(=O)NCC#N (stereo not drawn)           0.74
14  C[C@H](Nc1nc2c(cnn2C2CCCC2)c(=O)[nH]1)c1ccc(Cl)cc1           0.56
15    C=CC(=O)Nc1cccc(-c2c[nH]cc2CN(C)CCN)c1          -1.19
16  OC[C@H]1O[C@@H](c2ccc(F)c(Cc3cc4ccccc4s3)c2)[C@H](O)[C@@H](O)[C@@H]1O          -0.42
17  CC(=O)N[C@@H](CC(=O)O)C(=O)N[C@@H](CC(N)=O)C(=O)N[C@@H](CC(C)C)C(=O)N[C@H](C=O)CC(=O)O            0.8
18  NS(=O)(=O)OC[C@H]1C[C@@H](Nc2ccnc3cc(-c4cccc(SC(F)(F)F)c4)nn23)[C@H](O)[C@@H]1O           1.39

====

# targetUnderTest: Casein kinase I isoform delta (Homo sapiens) (UniProt P48730)
# Sequence (P48730 whole entry, looked up, canonical isoform): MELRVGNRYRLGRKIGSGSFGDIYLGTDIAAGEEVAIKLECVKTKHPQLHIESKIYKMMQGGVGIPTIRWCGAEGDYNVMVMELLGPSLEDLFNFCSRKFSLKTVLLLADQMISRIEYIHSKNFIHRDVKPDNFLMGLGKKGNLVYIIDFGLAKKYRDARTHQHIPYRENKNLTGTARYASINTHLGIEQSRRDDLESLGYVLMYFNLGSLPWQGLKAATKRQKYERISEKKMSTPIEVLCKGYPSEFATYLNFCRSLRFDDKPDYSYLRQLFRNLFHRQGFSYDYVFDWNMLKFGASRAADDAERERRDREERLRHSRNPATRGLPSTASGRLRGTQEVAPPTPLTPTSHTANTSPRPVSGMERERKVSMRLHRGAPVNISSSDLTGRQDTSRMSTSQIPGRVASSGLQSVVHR
# cond: Compound concentration 20.0 uM
Residues, ends and D or L forms follow the SMILES beside them. *: point of attachment. Cbz = O=C(OCc1ccccc1)*
We begin with a simple list: items and their reported ΔTm.
measurementName: ΔTm (°C)

> print(dat)
                                    compound                           targetundertest  measurementname  observedvalue
 1            CNc1cc(-c2cccc(Cl)c2Cl)nc(N)n1  Casein kinase I isoform delta (Homo sapiens) (UniProt P48730)              ΔTm          -0.27
 2  O=C(NCc1ccc(Cl)cc1)C1CCN(S(=O)(=O)c2cc(Cl)cc(Cl)c2)CC1  Casein kinase I isoform delta (Homo sapiens) (UniProt P48730)              ΔTm          -0.37
 3  Cc1noc2c1-c1ccccc1C(c1ccc(Cl)cc1)=N[C@H]2CC(N)=O  Casein kinase I isoform delta (Homo sapiens) (UniProt P48730)              ΔTm           0.05
 4  CN1CCc2c(n(Cc3ccc(C(=O)NO)cc3)c3ccccc23)C1  Casein kinase I isoform delta (Homo sapiens) (UniProt P48730)              ΔTm          -0.06
 5  CCc1c(-c2ccccc2)c(-c2ccccc2)nn1-c1ccccc1-c1cccc(OCC(=O)O)c1  Casein kinase I isoform delta (Homo sapiens) (UniProt P48730)              ΔTm          -2.01
 6  N[C@H](C(=O)O)[C@H](OCc1cccc(NC(=O)c2ccc(C(F)(F)F)cc2)c1)C(=O)O  Casein kinase I isoform delta (Homo sapiens) (UniProt P48730)              ΔTm          -0.32
 7         O=C(NO)c1cnc(NC2(c3ccccc3)CC2)nc1  Casein kinase I isoform delta (Homo sapiens) (UniProt P48730)              ΔTm           0.23
 8  O=CC1CCCN1C(=O)C1CCCN1C(=O)OCc1ccccc1 (stereo not drawn) (Cbz-Pro-Pro-aldehyde; configuration not given here)  Casein kinase I isoform delta (Homo sapiens) (UniProt P48730)              ΔTm           0.22
 9            Fc1ccc(CNc2ncnc3ccc(F)cc23)cc1  Casein kinase I isoform delta (Homo sapiens) (UniProt P48730)              ΔTm           0.46
10  COc1cc(Nc2ncc(F)c(Nc3ccc4c(n3)N(COP(=O)(O)O)C(=O)C(C)(C)O4)n2)cc(OC)c1OC  Casein kinase I isoform delta (Homo sapiens) (UniProt P48730)              ΔTm           0.24
